- subject-of-test: Mdm2/p53 binding (GST-Mdm2 / His-p53) (Homo sapiens, UniProt Q00987, L33E)
- Construct: Mdm2 partial protein having Mdm2 amino acids at positions 25 to 108
- Sequence (Q00987 25-108 L33E): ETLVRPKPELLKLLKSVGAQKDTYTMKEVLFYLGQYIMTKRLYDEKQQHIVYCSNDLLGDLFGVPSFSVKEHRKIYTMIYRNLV
- protocol: Mdm2/p53 binding assay (HTRF, His-p53 and GST-Mdm2)
- particulars: His-p53 (aa 1-132) and GST-Mdm2 (aa 25-108, L33E) 6.25 nM each; 25°C, 1 hour; values given as ranges
Quick reference for IC50 among some compounds

Worked examples, 2 compounds total:
>  <compound>
C[C@@H](O)[C@@H]1CC[C@@H](NC(=O)[C@@H]2NC3(CCC(C)(C)CC3)[C@@]3(C(=O)Nc4nc(Cl)ccc43)[C@H]2c2cccc(Cl)c2F)CO1 [Example 180]

>  <IC50>
0.001 to 0.05 µM

$$$$
>  <compound>
CC1(C)CCC2(CC1)N[C@@H](C(=O)N[C@H]1CC[C@H](c3nncs3)CC1)[C@H](c1ccnc(Cl)c1F)[C@]21C(=O)Nc2cc(Cl)ccc21 [Example 155]

>  <IC50>
0.05 to 0.1 µM

$$$$

Now, please, on to the next compound.
query: Which IC50 value is on record for CC1(C)CCC2(CC1)N[C@@H](C(=O)N[C@H]1CC[C@H](O)CC1)[C@H](c1cccc(Cl)c1F)[C@]21C(=O)Nc2nc(Cl)ccc21 (relative stereo) [Example 6] ?
result: 0.001 to 0.05 µM

###

Quick reference for IC50 among some compounds
- subject-of-test: Mdm2/p53 binding (GST-Mdm2 / His-p53) (Homo sapiens, UniProt Q00987, L33E)
- Construct: Mdm2 partial protein having Mdm2 amino acids at positions 25 to 108
- protocol: Mdm2/p53 binding assay (HTRF, His-p53 and GST-Mdm2)
- particulars: His-p53 (aa 1-132) and GST-Mdm2 (aa 25-108, L33E) 6.25 nM each; 25°C, 1 hour; values given as ranges

>  <smiles-data>
CC1(C)CCC2(CC1)N[C@@H](C(=O)N[C@@H]1CC[C@@H](CO)OC1)[C@H](c1ccnc(Cl)c1F)[C@]21C(=O)Nc2cc(Cl)c(F)cc21

>  <observed-value>
0.001 to 0.05 µM

$$$$
>  <smiles-data>
CNC(=O)[C@@H]1CC[C@@H](NC(=O)[C@@H]2NC3(CCC(C)(C)CC3)[C@@]3(C(=O)Nc4nc(Cl)ccc43)[C@H]2c2ccnc(Cl)c2F)CO1

>  <observed-value>
0.001 to 0.05 µM

$$$$
>  <smiles-data>
CC1(C)CCC2(CC1)N[C@@H](C(=O)N[C@@H]1CC[C@@H](C(N)=O)OC1)[C@H](c1cccc(Cl)c1F)[C@]21C(=O)Nc2nc(Cl)ccc21

>  <observed-value>
0.001 to 0.05 µM

$$$$
>  <smiles-data>
NC(=O)C[C@@H]1CC[C@@H](NC(=O)[C@@H]2NC3(CC(CF)(CF)C3)[C@@]3(C(=O)Nc4cc(Cl)ccc43)[C@H]2c2cccc(Cl)c2F)CO1

>  <observed-value>
0.05 to 0.1 µM

$$$$
>  <smiles-data>
CC1(C)CCC2(CC1)N[C@@H](C(=O)N[C@@H]1CC[C@@H](CO)OC1)[C@H](c1cccc(Cl)c1F)[C@]21C(=O)Nc2nc(Cl)ccc21

>  <observed-value>
0.001 to 0.05 µM

$$$$

Now, please, on to the next compound.
query: // fetch Mdm2/p53 binding (GST-Mdm2 / His-p53) (Homo sapiens, UniProt Q00987, L33E) IC50 for `CC1(C)CCC2(CC1)N[C@@H](C(=O)N[C@H]1CC[C@H](O)CC1)[C@H](c1cccc(Cl)c1F)[C@]21C(=O)Nc2cc(C#N)ccc21`
result: 0.05 to 0.1 µM

###

Quick reference for IC50 among some compounds
- subject-of-test: Mdm2/p53 binding (GST-Mdm2 / His-p53) (Homo sapiens, UniProt Q00987, L33E)
- Construct: Mdm2 partial protein having Mdm2 amino acids at positions 25 to 108
- protocol: Mdm2/p53 binding assay (HTRF, His-p53 and GST-Mdm2)
- particulars: His-p53 (aa 1-132) and GST-Mdm2 (aa 25-108, L33E) 6.25 nM each; 25°C, 1 hour; values given as ranges

Worked examples, 3 compounds total:
>  <compound>
COC[C@]1(O)CC[C@@H](NC(=O)[C@@H]2NC3(CCC(C)(C)CC3)[C@@]3(C(=O)Nc4nc(Cl)ccc43)[C@H]2c2ccnc(Cl)c2F)CC1

>  <recorded-endpoint>
IC50

>  <observed-value>
50 to 100 nM

$$$$
>  <compound>
CC1(C)CCC2(CC1)N[C@@H](C(=O)N[C@H]1CO[C@H](CO)[C@@H](O)C1)[C@H](c1cccc(Cl)c1F)[C@]21C(=O)Nc2cc(Cl)ccc21

>  <recorded-endpoint>
IC50

>  <observed-value>
1 to 50 nM

$$$$
>  <compound>
Cc1nnc([C@@H]2CC[C@@H](NC(=O)[C@@H]3NC4(CCC(C)(C)CC4)[C@@]4(C(=O)Nc5cc(Cl)ccc54)[C@H]3c3ccnc(Cl)c3F)CO2)o1

>  <recorded-endpoint>
IC50

>  <observed-value>
1 to 50 nM

$$$$

query: Which IC50 value is on record for `CC1(C)CCC2(CC1)N[C@@H](C(=O)N[C@@H]1CC[C@@H](CO)OC1)[C@H](c1ccnc(Cl)c1F)[C@]21C(=O)Nc2nc(Cl)ccc21` ?
result: 1 to 50 nM

query: Which IC50 value is on record for `CC1(C)CCC2(CC1)N[C@@H](C(=O)N[C@@H]1CC[C@@H](C(C)(C)O)OC1)[C@H](c1ccnc(Cl)c1F)[C@]21C(=O)Nc2cc(Cl)ccc21` ?
result: 50 to 100 nM

query: Which IC50 value is on record for `COCCNC(=O)[C@@H]1CC[C@@H](NC(=O)[C@@H]2NC3(CC(CF)(CF)C3)[C@@]3(C(=O)Nc4cc(Cl)ccc43)[C@H]2c2cccc(Cl)c2F)CO1` ?
result: 1 to 50 nM

###

- subject-of-test: Mdm2/p53 binding (GST-Mdm2 / His-p53) (Homo sapiens, UniProt Q00987, L33E)
- Construct: Mdm2 partial protein having Mdm2 amino acids at positions 25 to 108
- protocol: Mdm2/p53 binding assay (HTRF, His-p53 and GST-Mdm2)
- particulars: His-p53 (aa 1-132) and GST-Mdm2 (aa 25-108, L33E) 6.25 nM each; 25°C, 1 hour; values given as ranges
pIC50: −log10 of the molar value.
Quick reference for pIC50 among some compounds

Worked examples, 2 compounds total:
>  <compound>
CC1(C)CCC2(CC1)N[C@@H](C(=O)N[C@@H]1CC[C@@H](C(=O)NCCF)OC1)[C@H](c1ccnc(Cl)c1F)[C@]21C(=O)Nc2cc(Cl)ccc21 [Example 126]

>  <subject-of-test>
Mdm2/p53 binding (GST-Mdm2 / His-p53) (Homo sapiens, UniProt Q00987, L33E)

>  <pIC50>
7.30 to 9.00

$$$$
>  <compound>
Cn1cncc1CNC(=O)[C@@H]1NC2(CCC(C)(C)CC2)[C@@]2(C(=O)Nc3cc(Cl)ccc32)[C@H]1c1ccnc(Cl)c1F [Example 171]

>  <subject-of-test>
Mdm2/p53 binding (GST-Mdm2 / His-p53) (Homo sapiens, UniProt Q00987, L33E)

>  <pIC50>
7.00 to 7.30

$$$$

query: Which pIC50 value is on record for CN(C)C(=O)[C@H]1C[C@H](NC(=O)[C@@H]2NC3(CCC(C)(C)CC3)[C@@]3(C(=O)Nc4cc(Cl)ccc43)[C@H]2c2ccnc(Cl)c2F)C1 [Example 115] ?
result: 7.30 to 9.00

###

- subject-of-test: Mdm2/p53 binding (GST-Mdm2 / His-p53) (Homo sapiens, UniProt Q00987, L33E)
- Construct: Mdm2 partial protein having Mdm2 amino acids at positions 25 to 108
- protocol: Mdm2/p53 binding assay (HTRF, His-p53 and GST-Mdm2)
- particulars: His-p53 (aa 1-132) and GST-Mdm2 (aa 25-108, L33E) 6.25 nM each; 25°C, 1 hour; values given as ranges
Quick reference for IC50 among some molecules

>  <molecule>
CO[C@]1(CO)CC[C@@H](NC(=O)[C@@H]2NC3(CCC(C)(C)CC3)[C@@]3(C(=O)Nc4nc(Cl)ccc43)[C@H]2c2cccc(Cl)c2F)CC1

>  <recorded-endpoint>
IC50

>  <observed-value>
1 to 50 nM

$$$$
>  <molecule>
O=C(N[C@@H]1CC[C@@H](CO)OC1)[C@@H]1NC2(CC(CF)(CF)C2)[C@@]2(C(=O)Nc3cc(Cl)c(F)cc32)[C@H]1c1ccnc(Cl)c1F

>  <recorded-endpoint>
IC50

>  <observed-value>
50 to 100 nM

$$$$
>  <molecule>
CC1(C)CCC2(CC1)N[C@@H](C(=O)N[C@@H]1CC[C@@H](C(C)(C)O)OC1)[C@H](c1ccnc(Cl)c1)[C@]21C(=O)Nc2cc(Cl)ccc21

>  <recorded-endpoint>
IC50

>  <observed-value>
50 to 100 nM

$$$$
>  <molecule>
CC1(C)CCC2(CC1)N[C@@H](C(=O)N[C@@H]1CC[C@@H](c3nnco3)OC1)[C@H](c1ccnc(Cl)c1F)[C@]21C(=O)Nc2cc(Cl)ccc21

>  <recorded-endpoint>
IC50

>  <observed-value>
1 to 50 nM

$$$$

Now, please, on to the next molecule.
query: // fetch Mdm2/p53 binding (GST-Mdm2 / His-p53) (Homo sapiens, UniProt Q00987, L33E) IC50 for CC1(C)CCC2(CC1)N[C@@H](C(=O)N[C@H]1CC[C@H](N3CC(O)C3)CC1)[C@H](c1cccc(Cl)c1F)[C@]21C(=O)Nc2cc(Cl)ccc21 (relative stereo)
result: 1 to 50 nM
